All values here come from patent US20090131470A1.

Known IC50 of a selection of compounds
Target: PDK1 (Homo sapiens, UniProt O15530)
Sequence (O15530 1-556): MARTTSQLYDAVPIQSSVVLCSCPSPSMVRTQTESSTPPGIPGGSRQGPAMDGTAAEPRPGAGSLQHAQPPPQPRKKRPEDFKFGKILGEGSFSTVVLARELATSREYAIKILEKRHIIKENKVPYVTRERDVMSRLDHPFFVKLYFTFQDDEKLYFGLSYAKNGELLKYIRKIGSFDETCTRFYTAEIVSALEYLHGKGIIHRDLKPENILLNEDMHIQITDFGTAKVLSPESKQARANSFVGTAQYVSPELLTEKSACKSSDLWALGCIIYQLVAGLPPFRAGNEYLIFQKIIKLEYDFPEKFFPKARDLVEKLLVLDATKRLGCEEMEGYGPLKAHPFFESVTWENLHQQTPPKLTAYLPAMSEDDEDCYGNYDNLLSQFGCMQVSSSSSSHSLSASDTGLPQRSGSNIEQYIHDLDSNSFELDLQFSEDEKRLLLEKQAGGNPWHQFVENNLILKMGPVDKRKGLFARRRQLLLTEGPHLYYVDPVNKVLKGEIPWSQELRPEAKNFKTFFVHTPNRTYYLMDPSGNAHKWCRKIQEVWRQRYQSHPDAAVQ
The reply should be a number in nM, with the unit left off.

compound="Cc1cc2nc(-c3n[nH]c(C)c3C(=O)NC3CCN(C)CC3)[nH]c2cc1C [Example 29]" experimental_target="PDK1 (Homo sapiens, UniProt O15530)" measured_property=IC50 quantitative_readout=180
compound="Cc1[nH]nc(-c2nc3ccccc3[nH]2)c1C(=O)NCCCCN [Example 16]" experimental_target="PDK1 (Homo sapiens, UniProt O15530)" measured_property=IC50 quantitative_readout=249
compound="Cc1[nH]nc(-c2nc3cc(F)c(F)cc3[nH]2)c1C(=O)NC1CCNCC1 [Example 13]" experimental_target="PDK1 (Homo sapiens, UniProt O15530)" measured_property=IC50 quantitative_readout=520
compound="Cc1[nH]nc(-c2nc3ccc(C(C)C)cc3[nH]2)c1C(=O)NC1CCN(C)CC1 [Example 46]" experimental_target="PDK1 (Homo sapiens, UniProt O15530)" measured_property=IC50 quantitative_readout=36
compound="Cc1[nH]nc(-c2nc3ccc(C(C)C)cc3[nH]2)c1C(=O)N[C@@H]1CN2CCC1CC2 [Example 43]" experimental_target="PDK1 (Homo sapiens, UniProt O15530)" measured_property=IC50 quantitative_readout=22
compound="Cc1[nH]nc(-c2nc3ccc(C(F)(F)F)cc3[nH]2)c1C(=O)NC1CCNCC1 [Example 38]" experimental_target="PDK1 (Homo sapiens, UniProt O15530)" measured_property=IC50 quantitative_readout=32

Quickly give me recorded IC50 for Cc1[nH]nc(-c2nc3cc4ccccc4cc3[nH]2)c1C(=O)NC1CCNCC1 [Example 5] 58

Quickly give me recorded IC50 for COCCNC(=O)c1ccc2nc(-c3n[nH]c(C)c3C(=O)NC3CCNCC3)[nH]c2c1 [Example 31] 73
